// % Max Inhibition lookup, one value per entry
# Experimental System: cellular BACE1 in CHOK1-huAPP cells
# Run Description: cell-based or functional assay
Response body: numeric value in %, unit text excluded.

Below: 2 binders and their reported % Max Inhibition.
* 1F1 (antibody, human IgG1, V domains shown, chimeric, human IgG1/kappa; also called Clone 1F1) VH: EVQLQQSGAELMKPGASVKLSCKATGYTFIGYWIDWVKQRPGHGLEWIGEILPGGGSTNHNEKFKGKATFTTDTSSNTVYMQLSSLTTEDSAIYYCAREGSYGNYYFDYWGQGTSVTVSS VL: DIQMTQTPLSLPVSLGDQASISCRSSQSIVHSNGNTYLEWYLQKPGQSPKLLIYKVSNRFSGVPDRFSGSGSGTDFTLKISRVEAEDLGVYYCFQGSHVPYTFGGGTKLEIK | 63
* 1D2 (antibody, human IgG1, V domains shown, chimeric, human IgG1/kappa; also called Clone 1D2) VH: EVHVKQSGPELKKPGETVTISCKASGYTFTTYGMTWVRQAPGKDLEWMGWINTHSGVPIYADDFKGRFAFSLETSAGTAYLQINNLKNEDTATYFCTRRGRLGHYFDYWGQGTSVTVSS VL: DIVMTQSQKFMSTSVGDRVSVTCKASQNVGTNVAWYQQKPGQSPKLLIYWASTRHTGVPDRFTGSGSGTDFTLTISNVQSEDLADYFCQQYSSYPYTFGGGTKLELK | 47

Attention now turns to another entry.
State the recorded % Max Inhibition for this entry: 1D7 (antibody, human IgG1, V domains shown, chimeric, human IgG1/kappa; also called Clone 1D7) VH: EVKLMESGPGLVAPSQSLSISCTVSGFSLTSYGVDWVRQPPGKGLEWLGVVWGGGSTNYNSALMSRLSISKDNSKSQVFLKMNSLQTDDTAMYYCAKRDYFGGLNVWGTGTTVTVSS VL: DIVMTQTTSPLSVSLGDRVTISCRASQDISKYLNWYQQRPDGTVKLLIYYTSRLHSGVPSRFSGSGSGTDYSLTISNLEQEDIATYFCHQGHKIPYTFGGGTKLELK
55
